biological target: Recombinant Human Siglec-3/CD33 protein (His-CD33) (Homo sapiens (Human), UniProt P20138); assay: Differential scanning fluorimetry (DSF) thermal shift assay; type: binding; details: difference in thermal melt of CD33 protein (0.5 μM) with 50 μM compound
Sequence (P20138 18-259): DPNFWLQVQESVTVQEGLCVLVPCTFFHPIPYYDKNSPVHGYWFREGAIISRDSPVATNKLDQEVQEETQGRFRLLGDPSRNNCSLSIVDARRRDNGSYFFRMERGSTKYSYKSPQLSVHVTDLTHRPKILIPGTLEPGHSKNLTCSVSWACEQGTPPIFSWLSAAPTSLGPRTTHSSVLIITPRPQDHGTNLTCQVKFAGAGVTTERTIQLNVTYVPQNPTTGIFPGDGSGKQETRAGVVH
readout-label: DSF (dTmD) (°C)

1. CC(=O)N[C@H]1[C@H]2O[C@](C(=O)O)(C/C=C/COC[C@@H](NC(=O)[C@@H]3CCCOC3)COCCCOc3c(C)cc(cc3C)C(=O)NC[C@@H](O)[C@H]2O)C[C@@H]1O
2. Cc1cc(C(=O)NC[C@@H](O)[C@@H](O)[C@@H]2O[C@@](CC3OC(C)(C)O[C@H]3c3cccc(NC(=O)OC(C)(C)C)c3)(C(=O)O)C[C@H](O)[C@H]2NC(=O)Cn2cc(C3CCCCC3)nn2)cc(C)c1O (some centres unmarked)
query: Which value of DSF (dTmD) is numerically greater: that of 1 or that of 2 ? Mark your answer with the label of the selected entry.
result: 2
